target: endogenous kinases and other proteins enriched by Kinobeads from mixed cancer cell lysates (Homo sapiens, UniProt Q15831); construct: endogenous in cells; assay: Kinobeads pulldown, full dose-response (eight doses); assay type: binding; details: target STK11;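 further: competition with Kinobeads ε after inhibitor preincubation in lysate (5 mg/ml protein) for 45 min at 4 °C, DMSO control, doses 0.3–1,000 nM, label-free LC–MS/MS quantification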
Sequence (Q15831 whole entry): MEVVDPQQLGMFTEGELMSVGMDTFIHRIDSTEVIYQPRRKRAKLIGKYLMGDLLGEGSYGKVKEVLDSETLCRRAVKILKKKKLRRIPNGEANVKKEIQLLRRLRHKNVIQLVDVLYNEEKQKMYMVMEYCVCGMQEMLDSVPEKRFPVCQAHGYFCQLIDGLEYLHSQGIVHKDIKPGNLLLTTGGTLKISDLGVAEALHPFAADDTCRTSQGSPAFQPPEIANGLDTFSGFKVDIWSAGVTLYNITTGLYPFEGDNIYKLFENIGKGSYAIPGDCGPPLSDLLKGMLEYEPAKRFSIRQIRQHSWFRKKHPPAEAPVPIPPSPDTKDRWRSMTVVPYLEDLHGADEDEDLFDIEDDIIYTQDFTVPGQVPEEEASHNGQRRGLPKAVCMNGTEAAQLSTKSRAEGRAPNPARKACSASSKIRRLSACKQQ
ASSAY_METRIC: EC50 (µM)

> print(dat)
                                   molecule  result.number
1  Cn1cc(-c2nc(N[C@@H]3CCCC[C@@H]3N)c(F)c3c2C(=O)NC3)cn1 [TAK659]           1.15

###

Quick reference: CATDS of the listed items.
test system: CDK16; experiment: Kinobeads competition binding: CDK16; set-up: species or system human; conditions: target CDK16
ASSAY_METRIC: CATDS

> print(dat)
                                   compound  assay.metric  result.number
1  Nc1ncnc2[nH]c(-c3ccccc3)nc12 [AH5015_KCGS]         CATDS              0
2  CCN1CCN(Cc2ccc(Nc3ncc(F)c(-c4cc(F)c5nc(C)n(C(C)C)c5c4)n3)nc2)CC1 [Abemaciclib]         CATDS        0.02651
3  CCc1cc2c(cc1N1CCC(N3CCOCC3)CC1)C(C)(C)c1[nH]c3cc(C#N)ccc3c1C2=O [Alectinib]         CATDS              0
4  N#CC1(c2ccc(NC(=O)c3cccnc3NCc3ccncc3)cc2)CCCC1 [Apatinib]         CATDS              0

###

biological target: PAK4 (Homo sapiens, UniProt O96013); construct: a mixture of lysates from five cancer cell lines; endogenous in cells; experiment: Kinobeads full dose-response competition binding: PAK4; conditions: Gene Name PAK4; EC50 with Correction, doses in nM; read-out: apparent Kd
Sequence (O96013 whole entry): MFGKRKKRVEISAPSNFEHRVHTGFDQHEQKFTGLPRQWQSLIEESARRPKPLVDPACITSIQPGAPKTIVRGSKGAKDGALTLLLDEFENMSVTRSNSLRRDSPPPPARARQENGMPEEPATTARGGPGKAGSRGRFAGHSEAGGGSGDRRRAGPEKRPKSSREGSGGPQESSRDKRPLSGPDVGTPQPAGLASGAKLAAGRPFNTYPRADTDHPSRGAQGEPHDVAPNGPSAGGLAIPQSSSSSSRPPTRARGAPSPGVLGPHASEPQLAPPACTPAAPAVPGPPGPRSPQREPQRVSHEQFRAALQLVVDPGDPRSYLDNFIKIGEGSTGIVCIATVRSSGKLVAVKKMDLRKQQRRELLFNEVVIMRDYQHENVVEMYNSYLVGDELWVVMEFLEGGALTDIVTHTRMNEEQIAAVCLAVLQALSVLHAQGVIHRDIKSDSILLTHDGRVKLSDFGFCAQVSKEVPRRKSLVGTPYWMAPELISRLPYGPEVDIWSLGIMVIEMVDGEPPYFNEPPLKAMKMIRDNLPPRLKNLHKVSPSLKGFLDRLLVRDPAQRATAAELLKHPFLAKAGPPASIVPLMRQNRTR
// values below are reported Kd
ASSAY_METRIC: Kd (nM)

> print(dat)
                                   compound                      subject.of.test  result.number
1  CCn1c(-c2nonc2N)nc2c(C#CC(C)(C)O)nc(OCCNC)cc21 [GSK949675A]  PAK4 (Homo sapiens, UniProt O96013)            218
2  Cc1cccc(Nc2nc(N[C@H]3CCCC[C@H]3N)ncc2C(N)=O)c1 [GSK986310C]  PAK4 (Homo sapiens, UniProt O96013)           65.9

###

biological target: ACAD11 (Homo sapiens, UniProt Q709F0); construct: endogenous in cells; assay: Kinobeads two-dose competition binding: ACAD11; details: sheet CATDS matrix 2; Gene Name ACAD11
Sequence (Q709F0 whole entry): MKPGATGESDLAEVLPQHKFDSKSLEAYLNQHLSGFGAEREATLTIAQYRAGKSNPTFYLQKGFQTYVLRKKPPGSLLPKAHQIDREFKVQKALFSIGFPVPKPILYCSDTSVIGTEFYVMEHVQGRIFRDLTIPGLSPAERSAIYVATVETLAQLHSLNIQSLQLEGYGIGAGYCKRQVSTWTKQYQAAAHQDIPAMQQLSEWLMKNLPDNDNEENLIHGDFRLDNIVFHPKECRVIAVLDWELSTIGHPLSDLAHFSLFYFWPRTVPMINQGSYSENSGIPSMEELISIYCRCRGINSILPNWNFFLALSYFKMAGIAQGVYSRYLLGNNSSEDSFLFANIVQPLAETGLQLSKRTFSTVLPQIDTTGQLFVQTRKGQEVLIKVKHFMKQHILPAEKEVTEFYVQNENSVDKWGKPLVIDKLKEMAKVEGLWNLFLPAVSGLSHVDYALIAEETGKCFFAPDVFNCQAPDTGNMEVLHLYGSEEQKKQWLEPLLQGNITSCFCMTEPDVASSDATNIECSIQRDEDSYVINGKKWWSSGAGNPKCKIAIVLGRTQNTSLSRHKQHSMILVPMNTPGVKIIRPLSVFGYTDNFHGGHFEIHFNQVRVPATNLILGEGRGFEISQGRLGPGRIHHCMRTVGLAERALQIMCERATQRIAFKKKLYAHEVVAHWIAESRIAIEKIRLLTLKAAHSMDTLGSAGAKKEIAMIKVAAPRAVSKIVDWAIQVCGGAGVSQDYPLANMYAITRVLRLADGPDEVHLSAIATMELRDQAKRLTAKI
ASSAY_METRIC: CATDS

> print(dat)
                                    molecule  assay.metric  result.number
 1  O=c1[nH]cc(-c2ccc(O)cc2)c2sc(-c3ccncc3)cc12 [GSK1033723A]         CATDS              0
 2  COc1cc2c(cc1Nc1nc(Nc3ccsc3C(N)=O)c3cc[nH]c3n1)N(C(=O)CN(C)C)CCC2(C)C [GSK2163632A]         CATDS              0
 3  NCCCC(NC(=O)c1cc(Br)c(-c2ccnc3[nH]ccc23)s1)c1ccccc1 (stereo not shown) [GSK1287544A]         CATDS              0
 4  C=CC(=O)Nc1cc(-n2c(=O)ccc3cnc4ccc(-c5ccc(NS(C)(=O)=O)cc5)cc4c32)ccc1C         CATDS              0
 5  COc1ccc(Nc2nccc(N3CCC(NC(=O)Nc4ccc5c(c4)OCO5)C3)n2)cc1 (stereo not shown) [GSK1379745A]         CATDS              0
 6  C[C@@H](Oc1cc(-c2cnn(C3CCNCC3)c2)cnc1N)c1c(Cl)ccc(F)c1Cl [Crizotinib, reference compound]         CATDS              0
 7  COc1cc(Nc2nccc(N3CCC(NS(=O)(=O)c4ccc(NC(C)=O)cc4)CC3)n2)cc(OC)c1OC [GSK1379825A]         CATDS              0
 8  Nc1nc(-c2ccc3c(N)n[nH]c3c2)cc(N2CCCC(NC(=O)c3ccccc3)C2)n1 (stereo not shown) [GSK2286775B]         CATDS              0
 9  COc1cc2ncn(-c3cc(OCCc4ccccc4)c(C(N)=O)s3)c2cc1OC [GSK204925A]         CATDS              0
10  Cc1cc(-c2ccnc(Nc3cccc(C#N)c3)n2)cc(C)c1O [GSK1440913A]         CATDS         0.1181
11  NC(CNC(=O)c1cc(Br)c(-c2ccnc3[nH]ccc23)s1)c1ccccc1 (stereo not shown) [GSK1322949A]         CATDS              0
12  COc1ccc(C[C@@H](CN)NC(=O)c2cc(Br)c(-c3ccnc4[nH]ccc34)s2)cc1 [GSK1389063A]         CATDS              0
13  CNC(=O)c1ncccc1Nc1nc(Nc2cc3c(cc2OC)CCCN3C(=O)CN(C)C)nc2[nH]ccc12 [GSK2220400A]         CATDS              0
14  CN(C)C(=O)/C(C#N)=C/c1ccc(-c2nc3cnc4[nH]ccc4c3n2C2CCCCC2)o1         CATDS              0
15  COc1ccc(Nc2nccc(N3CCC(NC(=O)C(C)c4ccc(Cl)cc4)C3)n2)cc1 (stereo not shown) [GSK1379735A]         CATDS              0
16  O=C1Nc2ccccc2/C1=C1\CCc2cc(O)ccc21 [GR105659X]         CATDS              0

###

target: PRKACB (Homo sapiens); construct: endogenous in cells; assay: Kinobeads full dose-response competition binding: PRKACB; conditions: Gene Name PRKACB; EC50 with Correction, doses in nM; read-out: apparent Kd
ASSAY_METRIC: Kd (nM)

> print(dat)
                                   compound  result.number
1  CCn1c(-c2nonc2N)nc2c(C#CC(C)(C)O)nc(OCCN)cc21 [GSK902056A]            145

###

Below, each entry is listed alongside its reported potency estimated from few doses.
target: ABL2 (Homo sapiens, UniProt P42684); construct: endogenous in cells; experiment: Kinobeads two-dose competition binding: ABL2; conditions: sheet "Kinobeads Drugmatrix - all"; unit inferred; read-out: Kinobeads Drugmatrix - all: apparent Kd, ABL2
Sequence (P42684 whole entry): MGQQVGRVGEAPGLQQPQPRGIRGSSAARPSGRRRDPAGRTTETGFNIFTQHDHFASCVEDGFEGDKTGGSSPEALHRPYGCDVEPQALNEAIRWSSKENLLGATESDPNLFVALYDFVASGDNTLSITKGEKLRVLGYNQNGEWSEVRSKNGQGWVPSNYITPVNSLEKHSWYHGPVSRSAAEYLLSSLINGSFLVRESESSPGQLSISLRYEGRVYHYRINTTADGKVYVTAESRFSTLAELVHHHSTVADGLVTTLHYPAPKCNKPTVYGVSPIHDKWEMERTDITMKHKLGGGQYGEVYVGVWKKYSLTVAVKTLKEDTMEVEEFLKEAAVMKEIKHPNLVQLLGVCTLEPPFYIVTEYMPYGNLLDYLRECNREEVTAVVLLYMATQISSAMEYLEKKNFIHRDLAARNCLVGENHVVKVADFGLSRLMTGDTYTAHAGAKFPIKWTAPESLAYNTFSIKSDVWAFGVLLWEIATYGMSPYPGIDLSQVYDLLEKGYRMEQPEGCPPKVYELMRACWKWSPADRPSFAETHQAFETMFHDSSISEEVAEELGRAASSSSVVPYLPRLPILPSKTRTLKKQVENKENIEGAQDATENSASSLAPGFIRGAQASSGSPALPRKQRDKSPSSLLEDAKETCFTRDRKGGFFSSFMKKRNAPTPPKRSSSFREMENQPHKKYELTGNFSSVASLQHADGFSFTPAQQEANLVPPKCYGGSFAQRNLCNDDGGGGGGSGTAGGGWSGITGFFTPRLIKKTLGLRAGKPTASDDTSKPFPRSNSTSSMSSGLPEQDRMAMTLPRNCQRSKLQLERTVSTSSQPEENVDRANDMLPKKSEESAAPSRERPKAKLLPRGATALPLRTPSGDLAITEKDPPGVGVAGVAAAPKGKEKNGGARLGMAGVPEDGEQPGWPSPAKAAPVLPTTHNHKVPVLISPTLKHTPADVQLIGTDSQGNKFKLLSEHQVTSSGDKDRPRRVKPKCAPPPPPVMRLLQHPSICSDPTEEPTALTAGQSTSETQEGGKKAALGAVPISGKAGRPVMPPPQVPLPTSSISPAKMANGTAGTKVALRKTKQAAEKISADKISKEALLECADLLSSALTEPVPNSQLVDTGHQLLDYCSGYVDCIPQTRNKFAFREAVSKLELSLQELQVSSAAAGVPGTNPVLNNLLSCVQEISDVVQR
ASSAY_METRIC: potency estimated from few doses

> print(dat)
                                   compound                      subject.of.test   result
1  COc1cc2ncn(-c3cc(OCCCc4ccccc4)c(C(N)=O)s3)c2cc1OC [GSK205189A]  ABL2 (Homo sapiens, UniProt P42684)   956 nM
2  CN1CCc2ccc(Nc3nccc(-c4c(-c5cccc(NC(=O)c6c(F)cccc6F)c5)nc5ccccn45)n3)cc2C1 [GSK1010829B]  ABL2 (Homo sapiens, UniProt P42684)   515 nM
3  CNC(=O)c1ccccc1Nc1nc(Nc2cccc(CS(C)(=O)=O)c2)ncc1C [GSK1520489A]  ABL2 (Homo sapiens, UniProt P42684)   389 nM
4  NCC(C(=O)Nc1cc(Br)c(-c2ccnc3[nH]ccc23)s1)c1ccccc1 (stereo not drawn) [GSK1269851A]  ABL2 (Homo sapiens, UniProt P42684)   433 nM
5  CC(=O)N1CCN(c2ccc(Nc3nccc(-c4sc(C(C)C)nc4-c4cccc(NS(=O)(=O)c5cccc(Cl)c5)c4)n3)cn2)CC1 [GSK1660437A]  ABL2 (Homo sapiens, UniProt P42684)   351 nM
6  CC(C)c1nc(-c2cccc(NS(=O)(=O)c3c(F)cccc3F)c2F)c(-c2ccnc(Nc3ccc(N4CCOCC4)nc3)n2)s1 [GSK2008607A]  ABL2 (Homo sapiens, UniProt P42684)   101 nM
7  COc1ccc(Nc2ncc(C#N)c(Nc3ccccc3C(N)=O)n2)cc1N1CCN(C)CC1 [GSK1558669A]  ABL2 (Homo sapiens, UniProt P42684)   334 nM
8  CC(C)c1nc(-c2cccc(NS(=O)(=O)c3c(F)cccc3F)c2)c(-c2ccnc(Nc3ccc(N4CCOCC4)nc3)n2)s1 [GSK1723980B]  ABL2 (Homo sapiens, UniProt P42684)  61.3 nM
9  Clc1cc(Cl)cc(Nc2ccnc(Nc3cc(Cl)cc(Cl)c3)n2)c1 [GSK175726A]  ABL2 (Homo sapiens, UniProt P42684)  7.68 nM
